Origin of measurements: patent US20240208968A1

Target: αvβ6 (Homo sapiens, UniProt P06756+P18564)
Sequence (P06756 31-992 limits assumed): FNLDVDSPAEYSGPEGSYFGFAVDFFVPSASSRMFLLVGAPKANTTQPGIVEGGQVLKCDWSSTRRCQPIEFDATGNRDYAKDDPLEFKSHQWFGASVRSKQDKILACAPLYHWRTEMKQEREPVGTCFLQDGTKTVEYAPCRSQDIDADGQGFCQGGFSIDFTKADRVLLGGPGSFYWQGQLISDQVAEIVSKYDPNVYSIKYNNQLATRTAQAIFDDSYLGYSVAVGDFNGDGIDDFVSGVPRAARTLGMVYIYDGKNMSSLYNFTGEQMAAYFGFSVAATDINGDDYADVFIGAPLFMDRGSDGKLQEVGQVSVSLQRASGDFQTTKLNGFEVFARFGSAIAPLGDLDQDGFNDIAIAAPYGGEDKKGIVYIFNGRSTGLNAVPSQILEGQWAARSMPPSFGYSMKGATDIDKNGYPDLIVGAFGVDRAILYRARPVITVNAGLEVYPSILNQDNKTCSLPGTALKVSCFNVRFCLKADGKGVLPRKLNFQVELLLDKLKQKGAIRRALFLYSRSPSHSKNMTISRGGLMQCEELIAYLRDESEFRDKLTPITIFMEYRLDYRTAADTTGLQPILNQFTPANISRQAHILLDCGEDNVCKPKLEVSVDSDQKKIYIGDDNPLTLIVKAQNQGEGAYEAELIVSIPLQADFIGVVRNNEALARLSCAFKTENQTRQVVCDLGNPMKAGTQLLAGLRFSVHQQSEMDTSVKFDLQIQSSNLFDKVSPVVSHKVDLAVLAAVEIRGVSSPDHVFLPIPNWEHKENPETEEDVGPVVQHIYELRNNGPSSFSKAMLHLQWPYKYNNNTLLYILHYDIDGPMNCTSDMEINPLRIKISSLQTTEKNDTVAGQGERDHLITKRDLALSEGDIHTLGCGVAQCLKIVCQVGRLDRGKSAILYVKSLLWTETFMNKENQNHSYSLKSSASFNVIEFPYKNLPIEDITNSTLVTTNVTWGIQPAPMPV
Sequence (P18564 22-707 limits assumed): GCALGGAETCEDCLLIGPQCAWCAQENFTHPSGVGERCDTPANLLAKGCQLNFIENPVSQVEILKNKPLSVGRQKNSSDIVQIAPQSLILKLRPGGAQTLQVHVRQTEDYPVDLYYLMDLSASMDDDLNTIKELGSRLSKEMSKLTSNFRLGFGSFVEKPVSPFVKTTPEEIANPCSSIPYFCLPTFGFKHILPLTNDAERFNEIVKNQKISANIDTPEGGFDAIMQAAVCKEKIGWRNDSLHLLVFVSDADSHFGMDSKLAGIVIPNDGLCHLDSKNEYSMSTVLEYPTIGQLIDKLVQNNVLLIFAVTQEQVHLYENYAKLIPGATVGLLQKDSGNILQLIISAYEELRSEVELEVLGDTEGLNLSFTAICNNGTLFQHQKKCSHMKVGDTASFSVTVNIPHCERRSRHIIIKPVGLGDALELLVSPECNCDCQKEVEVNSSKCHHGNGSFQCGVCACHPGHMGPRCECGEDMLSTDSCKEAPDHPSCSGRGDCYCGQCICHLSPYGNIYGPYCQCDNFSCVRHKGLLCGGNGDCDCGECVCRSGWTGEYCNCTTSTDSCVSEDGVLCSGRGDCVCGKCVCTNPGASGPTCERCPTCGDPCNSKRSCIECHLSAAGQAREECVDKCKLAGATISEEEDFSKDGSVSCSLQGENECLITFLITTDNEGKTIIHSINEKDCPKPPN
Assay: Solid Phase Integrin αvβ6 Assay
Format: binding
Protocol: The compounds exemplified in this document were tested for their ability to inhibit αvβ1 and αvβ6 in below described solid phase integrin assays. Solid Phase Integrin αvβ6 Assay 96-well microtiter plates (4 HBX Immulon; Thermo Fisher Scientific, Waltham, MA) were coated with 100 μL/well of 1 μg/mL recombinant TGFb1-LAP in TBS at 4° C., overnight. […] Bound protein was detected using the substrate TMB. […]
Structures can show the parent of a compound that is named as a salt.
MEASURE: IC50

>>> obs_value("O=C(O)[C@@](O)(CO[C@@H]1CCCN(Cc2ccc3c(n2)NCCC3)C1)c1ccccc1")
"> 1000 nM"
>>> obs_value("O=C(NC[C@H](C(=O)O)c1cccc2c1CCC2)[C@@H]1CCCN(CCCc2ccc3c(n2)NCCC3)C1")
"100 to 1000 nM"
>>> obs_value("Nc1nnc(C(=O)N[C@@H](CNC(=O)[C@@H]2CCCN(CCCc3ccc4c(n3)NCCC4)C2)C(=O)O)o1")
"< 100 nM"
>>> obs_value("O=C(O)[C@@H](CCO[C@@H]1CCCN(CCCc2ccc3c(n2)NCCC3)C1)c1cccc2c1cnn2CC1CC1")
"< 100 nM"
>>> obs_value("O=C(O)C[C@@H](O[C@@H]1CCCN(CCCCc2ccc3c(n2)NCCC3)C1)c1ccccc1")
"> 1000 nM"

Q. // lookup IC50 for `O=C(O)[C@H](CCO[C@@H]1CCCN(Cc2ccc3c(n2)NCCC3)C1)NC(=O)C12CCC(CC1)CC2`
A. > 1000 nM

Q. // lookup IC50 for `O=C(O)C[C@H](CO[C@@H]1CCCN(CCCc2ccc3c(n2)NCCC3)C1)c1ccccc1-c1ccccc1`
A. > 1000 nM

Q. // lookup IC50 for O=C(O)CC(CO[C@H]1CCCN(CCCc2ccc3c(n2)NCCC3)C1)c1ccccc1 (stereo partly shown)
A. 100 to 1000 nM

Q. // lookup IC50 for `C[C@@H]1C[C@@H](C(=O)NC[C@H](C(=O)O)c2ccc3ccccc3c2)CN(CCCc2ccc3c(n2)NCCC3)C1`
A. 100 to 1000 nM

Q. // lookup IC50 for `O=C(NC[C@H](C(=O)O)c1ccccc1C1CC1)[C@@H]1CCCN(CCCc2ccc3c(n2)NCCC3)C1`
A. < 100 nM

Q. // lookup IC50 for `O=C(O)[C@H](CO[C@@H]1CCCN(CCCc2ccc3c(n2)NCCC3)C1)c1ccccc1`
A. > 1000 nM

Q. // lookup IC50 for Cc1cnn(C)c1-c1cccc([C@H](CC(=O)O)NC(=O)[C@@H]2CCCN(CCCc3ccc4c(n3)NCCC4)C2)c1 [Compound 226, hydrochloride]
A. < 100 nM

Q. // lookup IC50 for `O=C(NC[C@H](C(=O)O)c1cncc(-c2ccccc2)c1)[C@@H]1CCCN(CCCc2ccc3c(n2)NCCC3)C1`
A. < 100 nM

Q. // lookup IC50 for `O=C(NC[C@H](Nc1cccnc1C1CC(F)(F)C1)C(=O)O)[C@@H]1CCCN(CCCc2ccc3c(n2)NCCC3)C1`
A. < 100 nM

Q. // lookup IC50 for `O=C(NC[C@H](C(=O)O)c1ccccc1)[C@@H]1CCCN(CCCc2ccc3c(n2)NCCC3)C1`
A. < 100 nM

Q. // lookup IC50 for `O=C(O)C[C@H](O[C@@H]1CCCN(CCCc2ccc3c(n2)NCCC3)C1)c1ccccc1`
A. > 1000 nM

###

Target: αvβ6 (Homo sapiens, UniProt P06756+P18564)
Assay: Solid Phase Integrin αvβ6 Assay
pIC50: −log10 of the molar value.
MEASURE: pIC50

Worked examples, 6 molecules total:
>>> obs_value("O=C(O)[C@H](CCO[C@@H]1CCCN(CCCc2ccc3c(n2)NCCC3)C1)NC(=O)C12CCC(CC1)CC2")
"6.00 to 7.00"
>>> obs_value("O=C(CC[C@H](NC(=O)C12CCC(CC1)CC2)C(=O)O)N[C@H]1CCN(C(=O)CCCc2ccc3c(n2)NCCC3)C1")
"> 7.00"
>>> obs_value("O=C(NC[C@H](C(=O)O)c1cnc2c(ccn2CC2CC2)c1)[C@@H]1CCCN(CCCc2ccc3c(n2)NCCC3)C1")
"> 7.00"
>>> obs_value("O=C(O)C[C@H](NC(=O)[C@@H]1CCCN(CCCc2ccc3c(n2)NCCC3)C1)c1cccc(N2CC3CCC2CO3)c1 (single isomer, unassigned) [Compound 241-B]")
"> 7.00"
>>> obs_value("O=C(NC[C@H](C(=O)O)c1ccc2c(c1)CCCC2)[C@@H]1CCCN(CCCc2ccc3c(n2)NCCC3)C1")
"6.00 to 7.00"
>>> obs_value("CC1(C)CN(c2cccc([C@@H](CO[C@@H]3CCCN(CCCc4ccc5c(n4)NCCC5)C3)CC(=O)O)c2)CCC1(F)F")
"> 7.00"

Attention now shifts to the item below.
Q. // lookup pIC50 for `O=C(O)C[C@H](CO[C@H]1CCCN(CCCc2ccc3c(n2)NCCC3)C1)c1ccccc1`
A. 6.00 to 7.00

###

Biological target: αvβ6 (Homo sapiens, UniProt P06756+P18564)
Assay: Solid Phase Integrin αvβ6 Assay
Recorded IC50 for the following molecules

Worked examples, 2 molecules total:
>>> obs_value("O=C(NC[C@@H](Nc1cccc(C2CC(F)(F)C2)c1)C(=O)O)[C@@H]1CCCN(CCCc2ccc3c(n2)NCCC3)C1 [Compound 589]")
"< 100 nM"
>>> obs_value("CC1(C)CCCN(c2cccc([C@@H](CNC(=O)[C@@H]3CCCN(CCCc4ccc5c(n4)NCCC5)C3)C(=O)O)c2)C1 [Compound 599]")
"< 100 nM"

Q. // lookup IC50 for O=C(O)C[C@H](CC(=O)N[C@H]1CCN(C(=O)CCCc2ccc3c(n2)NCCC3)C1)c1ccccc1 [Compound 522]
A. 100 to 1000 nM

Q. // lookup IC50 for O=C(O)[C@@](O)(CO[C@@H]1CCCN(CCCCc2ccc3c(n2)NCCC3)C1)c1ccccc1 [Compound 454]
A. > 1000 nM

Q. // lookup IC50 for O=C(O)C[C@H](CO[C@@H]1CCCN(CCCc2ccc3c(n2)NCCC3)C1)c1cccc(N2C[C@@H]3CC[C@H]2CO3)c1 [Compound 462]
A. < 100 nM
